Just for reference, patent US20210380703A1 is where these values come from.

Biological target: Human ACVR2A (on cells) (human, UniProt P27037 20-513)
Sequence (P27037 20-513): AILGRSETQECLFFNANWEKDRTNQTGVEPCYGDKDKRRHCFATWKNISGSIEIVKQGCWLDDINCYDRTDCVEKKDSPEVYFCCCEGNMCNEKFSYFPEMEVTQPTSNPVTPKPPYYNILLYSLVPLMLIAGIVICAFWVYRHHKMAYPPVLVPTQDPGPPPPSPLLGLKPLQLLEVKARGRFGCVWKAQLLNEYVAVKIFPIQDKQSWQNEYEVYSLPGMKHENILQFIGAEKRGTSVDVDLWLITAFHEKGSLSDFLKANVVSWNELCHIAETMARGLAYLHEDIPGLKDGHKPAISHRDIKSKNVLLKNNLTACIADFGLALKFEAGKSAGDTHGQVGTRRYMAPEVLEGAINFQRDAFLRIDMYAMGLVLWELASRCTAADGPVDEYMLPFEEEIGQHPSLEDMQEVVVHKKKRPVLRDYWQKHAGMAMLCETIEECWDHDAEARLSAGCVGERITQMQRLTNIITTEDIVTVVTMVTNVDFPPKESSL
Assay: cell-based or functional assay
measure: Phospho-SMAD3 Human Skeletal Muscle GDF8 (AlphaLisa, primary human myotubes)
No unit in the answer, please; the number alone is enough.

# binder, value
measured = [
    ("366_A05 (antibody, V domains shown) VH: EVQLLESGGGLVQPGGSLRLSCAASGFTFSSYSMNWVRQAPGKGLEWVAGINYNSGYTGYADSVKGRFTISRDNSKNTLYLQMNSLRAEDTAVYYCARSATWHDTHLDYWGQGTLVTVSS VL: DIQMTQSPSSLSASVGDRVTITCRASQSILTYVNWYQQKPGKAPKLVIYAATSLASGVPSRFSGSGSGTDFTLTISSLQPEDFATYYCQQSYNTPLTFGGGTKVEIK", 0.0244),
]

Looking for the measured Phospho-SMAD3 Human Skeletal Muscle GDF8 (AlphaLisa, primary human myotubes) of 373_G05 (antibody, V domains shown) VH: EVQLLESGGGLVQPGGSLRLSCAASGFTFSSYSMNWVRQAPGKGLEWVAGINYNGGYTSYADSVKGRFTISRDNSKNTLYLQMNSLRAEDTAVYYCARSATWHDTHLDYWGQGTLVTVSS VL: DIQMTQSPSSLSASVGDRVTITCRASQSILSYLNWYQQKPGKAPKLLIYAATSLASGVPSRFSGSGSGTDFTLTISSLQPEDFATYYCQQSYELPLTFGGGTKVEIK , can you help? 0.0059

Note, next up: 376_B01 (antibody, V domains shown) VH: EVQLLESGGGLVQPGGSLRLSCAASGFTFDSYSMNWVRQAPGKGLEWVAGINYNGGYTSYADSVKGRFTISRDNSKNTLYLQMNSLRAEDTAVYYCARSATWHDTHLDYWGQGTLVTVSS VL: DIQMTQSPSSLSASVGDRVTITCRASQSILTYVNWYQQKPGKAPKLVIYAATSRASGVPSRFSGSGSGTDFTLTISSLQPEDFATYYCQQSYNLPLTFGGGTKVEIK 0.0086
